Assay: Snapshot (5 h) PK study with/without EA and 1-ABT
Type: in vivo
Details: male, CD-1, mouse, plasma, ip, 10 mg/kg, CD-1 mice, 10 mg/kg i.p., with both EA (30 mg/kg) and 1-ABT (100 mg/kg)
measuredEndpoint: half-life

Query: Quick one: half-life for `CCC(=O)Nc1cc(Nc2cc(NC3CC3)n3ncc(C#N)c3n2)c(F)cc1N1CCC[C@H](NC)C1` ?
Result: 222 min

###

Target: PHKG1 (Homo sapiens, UniProt Q16816)
Sequence (Q16816 whole entry): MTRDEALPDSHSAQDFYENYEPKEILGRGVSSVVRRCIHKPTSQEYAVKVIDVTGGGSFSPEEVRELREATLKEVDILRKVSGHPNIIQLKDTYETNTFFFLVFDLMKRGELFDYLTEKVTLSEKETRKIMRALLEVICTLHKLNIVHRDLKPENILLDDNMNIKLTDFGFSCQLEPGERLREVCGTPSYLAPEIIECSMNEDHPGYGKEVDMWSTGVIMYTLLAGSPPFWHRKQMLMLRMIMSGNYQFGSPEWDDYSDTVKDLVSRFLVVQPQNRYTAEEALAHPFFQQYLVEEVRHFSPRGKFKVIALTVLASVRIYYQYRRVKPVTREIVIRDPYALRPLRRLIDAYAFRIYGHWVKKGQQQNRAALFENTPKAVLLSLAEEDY
Assay: NanoBRET dose-response PHKG1
Settings: highest concentration tested 30 μM
measuredEndpoint: IC50

Query: Quick one: IC50 for `CCC(=O)Nc1cc(Nc2cc(NC3CC3)n3ncc(C#N)c3n2)c(F)cc1N1CCC[C@H](NC)C1` ?
Result: > 30 µM
